- Tested on: Klebsiella pneumoniae Strain ID 301916 (KPC-1)
- test-name: Antimicrobial susceptibility testing, broth microdilution (CLSI)
- Format: cell-based
- stated-conditions: Strain ID 301916 KLEPNEP, KPC-1 positive control, Mueller-Hinton broth, read-out: minimum inhibition concentration (MIC)
readout-kind: MIC

Below are worked cases with known answers.
molecule	MIC
CO/N=C(\C(=O)N[C@@H]1C(=O)N2C(C(=O)O)=C(COC(C)=O)CS[C@H]12)c1csc(N)n1 [CTX, Cefotaxime]	> 64 µg/mL
CC1(C)S[C@@H]2[C@H](NC(=O)[C@H](N)c3ccccc3)C(=O)N2[C@H]1C(=O)O [Amp, Ampicillin]	> 32 µg/mL
C[C@@H](O)[C@H]1C(=O)N2C(C(=O)O)=C(SCCN=CN)C[C@H]12 [IPM, Imipenem]	8 µg/mL

Lab note: measured MIC of CC(C)(O/N=C(\C(=O)N[C@@H]1C(=O)N2C(C(=O)[O-])=C(C[n+]3ccccc3)CS[C@H]12)c1csc(N)n1)C(=O)O [CAZ, Ceftazidime] was > 128 µg/mL
